# targetOrTestSystem: Serine/threonine-protein kinase Nek7 (Homo sapiens)
# runDescription: NEK7 kinase inhibitors, dose response, biochemical, Z'-LYTE FRET, direct format, recombinant human (AID 1671332)
# conditions: Z'-LYTE FRET kinase activity
experimentalEndpoint: IC50

- compound: "CN1C(=O)C2(Cc3cn(C45CC67SSC(CO)(C(=O)N6C4Nc4ccccc45)N(C)C7=O)c4ccccc34)SSC1(CO)C(=O)N2C (stereo unspecified)"
  targetOrTestSystem: "Serine/threonine-protein kinase Nek7 (Homo sapiens)"
  assayResult: "274 nM"
